target_or_system: TAS2R10 (Homo sapiens)
Sequence (Q9NYW0 1-307): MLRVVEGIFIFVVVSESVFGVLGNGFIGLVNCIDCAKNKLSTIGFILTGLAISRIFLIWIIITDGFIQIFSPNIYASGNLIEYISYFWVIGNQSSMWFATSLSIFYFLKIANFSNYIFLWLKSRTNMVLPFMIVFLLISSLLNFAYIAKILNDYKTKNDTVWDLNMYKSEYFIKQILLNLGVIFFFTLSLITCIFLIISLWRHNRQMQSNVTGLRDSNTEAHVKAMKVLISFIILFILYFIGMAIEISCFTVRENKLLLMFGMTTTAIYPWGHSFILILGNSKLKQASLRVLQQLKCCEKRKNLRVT
protocol_details: cell-based
Set-up: bioluminescence intracellular calcium release assay, mt-clytin II with coelenterazine, Gα16-gust44 co-expressed
experimental_parameters: AD-293 cells
assay_readout: pEC50
One number for each entry, as −log10 of the molar value.

pEC50 recorded for this compound, COc1cc2c(cc1OC)[C@@]13CCN4CC5=CCO[C@H]6CC(=O)N2[C@H]1[C@H]6[C@H]5C[C@H]43 , is 4.38

* * *

target_or_system: UniProt Q9NYW6
Sequence (Q9NYW6 whole entry): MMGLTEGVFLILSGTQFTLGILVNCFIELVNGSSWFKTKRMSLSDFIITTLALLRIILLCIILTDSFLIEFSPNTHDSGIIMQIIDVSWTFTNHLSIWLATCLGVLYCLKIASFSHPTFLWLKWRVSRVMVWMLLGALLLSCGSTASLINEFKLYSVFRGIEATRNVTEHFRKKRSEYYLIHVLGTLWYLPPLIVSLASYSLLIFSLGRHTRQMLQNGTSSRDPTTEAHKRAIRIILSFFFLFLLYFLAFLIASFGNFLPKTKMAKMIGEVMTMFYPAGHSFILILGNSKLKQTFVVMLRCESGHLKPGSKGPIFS
protocol_details: cell-based
Set-up: bioluminescence intracellular calcium release assay, mt-clytin II with coelenterazine, Gα16-gust44 co-expressed
experimental_parameters: 293AD cells
assay_readout: pEC50
Numbers only, as −log10 of the molar value.

pEC50 recorded for this compound, CCN(CC)CCCC(C)Nc1ccnc2cc(Cl)ccc12 (stereo not shown) [Chloroquine diphosphate] , is 4.35
